# Tested on: A549/ATCC NSCLC
# experiment notes: NCI-60 one-dose screen, 48 h
# conditions: 10 µM
The panel holds about 83,000 compounds, 20% with a hit somewhere; the sample as a whole holds those more often. The source made the active and inactive calls. The calls were made as follows: active = growth percent below 10; inactive = the rest.
One label from this list, please: active, inactive

Which outcome was entered for the molecule CNC(=O)c1cccc(N2CCc3c2ccc(NC(=O)Nc2ccc(N4CCN(C)CC4)c(C(F)(F)F)c2)c3F)c1 in this test?
active

Do the same for O=C(Nc1cc(Cl)cc(Cl)c1)Nc1cc(Cl)cc(Cl)c1 please
active

Do the same for O=c1oc2ccccc2cc1-c1csc(N=Nc2c(O)[nH]c3ccc(Br)cc23)n1 please
inactive

Do the same for C=C(c1ccc(OC)c(N)c1)c1cc(C)nc2ccccc12 please
inactive

Do the same for Cc1ccc2nc3c(nc2c1)c1cc(I)ccc1n3CCN(C)C please
inactive

Do the same for OCc1[nH]nc2cc(Nc3ncc4ccc(Br)c(OC5CCC(O)CC5)c4n3)ccc12 (stereo not given) please
active

Do the same for O=C(CNc1nc(-c2ccccc2)cs1)Nc1ccc([N+](=O)[O-])cc1Cl please
inactive

Do the same for Cc1cc(=O)oc2cc(OCCCCOc3ccc(/C=C/C(=O)Nc4cccc(Cl)c4)cc3)ccc12 please
inactive

Do the same for O=C(CNc1nc(-c2ccccc2)cs1)Nc1ccc(Cl)cc1 please
active

Do the same for CCCn1c(=O)c2[nH]c(-c3ccc(OCc4nc5ccccc5[nH]4)cc3)nc2n(CCC)c1=O please
inactive

* * *

# Tested on: IGROV1 ovarian
# experiment notes: NCI-60 one-dose screen, 48 h (100 = growth as untreated, 0 = no growth, -100 = all killed)
# conditions: 10 µM
# Method: Growth inhibition of the IGROV1 human tumor cell line is measured as a screen for anti-cancer activity. Cells are grown in 96 well plates and exposed to the test compound for 48 hours. Compounds are tested at a single concentration, which is 10^-5 M for most compounds. The reported endpoint is percent growth (GI% or GIPRCNT), where numbers from 0 - 100% represent growth inhibition, and numbers from -100% - 0 represent cell death. For example, a value of 40 represents 60% growth inhibition. […]
Compounds without any hit were thinned out: in the full panel of roughly 83,000, 20% have a hit. Calls of active or inactive are those of the source. Rule for the calls: active = growth percent below 10; inactive = the rest.
Task for the reader: assign each of the following compounds its reported growth.

Which growth value belongs to O=C(Nc1cccc([N+](=O)[O-])c1)Nc1cccc([N+](=O)[O-])c1 ?
88.6% (inactive)

Do the same for O=C(N=Nc1c(O)[nH]c2ccc(Br)cc12)c1ccc2nc(-c3ccccc3)[nH]c2c1 please
-39% (active)

Do the same for Cc1ccc(-c2nc3ccc(C(=O)N=Nc4c(O)[nH]c5ccc(Br)cc45)cc3[nH]2)cc1 please
87.4% (inactive)

Do the same for CN(C)c1nc(NCCNS(=O)(=O)c2ccc(C(=O)/C=C/c3ccccc3)cc2)nc(Nc2ccc(F)cc2)n1 please
8.78% (active)

Do the same for O=C(CSc1nnc(-c2ccc3nc(-c4ccc(Cl)cc4)[nH]c3c2)o1)Nc1ccc(Cl)cc1 please
-18.8% (active)

* * *

# Test system: OVCAR-5 ovarian
# experiment notes: NCI-60 one-dose screen, 48 h
# conditions: 10 µM
# Protocol: Growth inhibition of the OVCAR-5 human tumor cell line is measured as a screen for anti-cancer activity. Cells are grown in 96 well plates and exposed to the test compound for 48 hours. Compounds are tested at a single concentration, which is 10^-5 M for most compounds. The reported endpoint is percent growth (GI% or GIPRCNT), where numbers from 0 - 100% represent growth inhibition, and numbers from -100% - 0 represent cell death. For example, a value of 40 represents 60% growth inhibition. […]
About 83,000 compounds went through this panel and 20% of them were active in at least one assay; those are over-represented in the sample as a whole. Active and inactive are the calls of the source. The calls were made as follows: active = growth percent below 10; inactive = the rest.
One label from this list, please: active, inactive

Which outcome was entered for the compound Cc1ccc(/C=C/C(=O)c2ccc(S(=O)(=O)NCCNc3nc(Nc4ccc(F)cc4)nc(N(C)C)n3)cc2)cc1 in this test?
inactive

Do the same for O=C(Nc1ccc(I)cc1F)c1cc(-c2ccc(F)cc2F)ccc1O please
active

Do the same for COc1ccc(/C=N/N=C(\C)c2ccc3c(c2)Nc2ccccc2S3)cc1O please
inactive

Do the same for COc1cc(/C=C/C(=O)c2ccc(F)cc2)ccc1Oc1nc(Nc2ccc(F)cc2)nc(N(C)C)n1 please
inactive

Do the same for O=C(CNc1nc(-c2ccccc2)cs1)Nc1ccc(Br)cc1 please
active

* * *

# System: HT29 colon
# experiment notes: NCI-60 one-dose screen, 48 h
# conditions: 10 µM
About 83,000 compounds went through this panel and 20% of them were active in at least one assay; those are over-represented in the sample as a whole. Active and inactive are the calls of the source. How the source made its calls: active means growth percent below 10; inactive means the rest.
One label from this list, please: active, inactive

Which outcome was entered for the molecule NS(=O)(=O)c1ccc(NC(=O)CSc2ccc(-c3ccccc3)nn2)c(Br)c1 in this test?
inactive

Do the same for CO[C@@H]1CSSC1Cn1nc(-c2ccc(Oc3ccccc3)cc2)c2c(N)ncnc21 (some centres undefined) please
inactive

Do the same for Cc1ccc(/C(N)=N/c2sc(-c3ccccc3)nc2-c2ccccc2)cc1 please
inactive

Do the same for O=C1Nc2cc(Cl)ccc2/C1=C/c1ccc(OCc2ccc(Br)cc2F)cc1 please
active

Do the same for CCCCSc1nc(Nc2ccc(/C(C)=N/NC(N)=S)cc2)c(C#N)c(-c2ccccc2)n1 please
inactive

Do the same for O=C(c1ccc(O)cc1)C1[C@H](c2ccc(Br)cc2)[C@@H](c2ccccc2)NC12C(=O)Nc1ccc(Br)cc12 (some centres undefined) please
active

Do the same for COc1ccc(CN2[C@H](C(=O)NCCCCCCC(=O)NO)Cc3c([nH]c4ccccc34)[C@H]2C2CC2)cc1 please
active

Do the same for COc1ccc([C@H]2C(C(=O)c3ccc(Cl)cc3)C3(N[C@@H]2c2ccccc2)C(=O)Nc2ccc(Br)cc23)cc1 (some centres undefined) please
active

Do the same for O/N=C(\CSc1nnc(-c2c[nH]c3ccccc23)n1-c1ccccc1)c1ccc(Cl)cc1 please
active

Do the same for O=C(CNc1nc(-c2ccccc2)cs1)Nc1ccccc1 please
active

Do the same for COc1ccc(-c2ccc(/C=N/NC(=O)c3[nH]c4ccc(Br)cc4c3-c3ccccc3)s2)cc1 please
inactive

Do the same for O=C(Cn1nc(-c2ccccc2)ccc1=O)NNC(=S)NC1CCCCC1 please
inactive

Do the same for CC(C)NC(=O)c1cc(-c2ccc(NC(=O)Nc3ccc(N4CCN(C)CC4)c(C(F)(F)F)c3)cc2)nc2cccnc12 please
active

Do the same for CC(=C(c1ccc(OCCN2CCCCCC2)cc1)c1ccc(OCCN2CCCCCC2)cc1)c1ccc(Cl)cc1 please
active

Do the same for Brc1ccc(/C=N/Nc2ncnc3sc4c(c23)CCN(Cc2ccccc2)C4)cc1 please
active

Do the same for CC(=C(c1ccc(OCCN2CCCCC2)cc1)c1ccc(OCCN2CCCCC2)cc1)c1ccccc1 please
active

Do the same for O=C1CCC(N2Cc3c(NCc4ccc(-c5ccccc5)cc4)cccc3C2=O)C(=O)N1 (centres undefined) please
inactive

Do the same for O=C(CSc1nnc(-c2ccc3nc(-c4ccccc4)[nH]c3c2)o1)Nc1ccc(Br)cc1 please
inactive

Do the same for CCOC(=O)C1NN(c2ccc(S(N)(=O)=O)cc2)c2nc3nc(-c4cccs4)cc(-c4cccs4)c3c(=O)n21 (centres undefined) please
inactive

* * *

# Test system: RPMI-8226 leukemia
# experiment notes: NCI-60 one-dose screen, 48 h
# conditions: 10 µM
Compounds without any hit were thinned out: in the full panel of roughly 83,000, 20% have a hit. Activity calls are given as the source filed them. The calls were made as follows: active = growth percent below 10; inactive = the rest.
One label from this list, please: active, inactive

Which outcome was entered for the compound CCOC(=O)C1NN(c2ccc(S(N)(=O)=O)cc2)c2nc3nc(-c4cccs4)cc(-c4cccs4)c3c(=O)n21 (stereo not drawn) in this test?
inactive

Do the same for Nc1nc(-c2ccccc2)cc(-c2cc3ccccc3nc2Cl)n1 please
inactive

Do the same for CC(=O)c1ccc(Nc2nc(SCCC(C)C)nc(-c3ccc(F)cc3)c2C#N)cc1 please
inactive

Do the same for CC1(C)CC[C@]2(C(=O)NCCCNCCCCNCCCN)CC[C@]3(C)C(=CC[C@@H]4[C@@]5(C)Cc6c([nH]c7ccccc67)C(C)(C)[C@@H]5CC[C@]43C)[C@H]2C1 please
inactive

Do the same for COc1ccccc1[C@H]1C(C(=O)c2ccc(O)cc2)C2(N[C@@H]1c1ccccc1)C(=O)Nc1ccc(Br)cc12 (stereo partly drawn) please
inactive

Do the same for O=C(CSc1nnc(-c2c[nH]c3ccccc23)n1-c1ccccc1)Nc1ccc(C(=O)/C=C/c2ccccc2Cl)cc1 please
inactive

Do the same for Nc1nc2c(F)c(F)c(F)c(F)c2s1 please
inactive

Do the same for COc1ccc(C(C)=C(c2ccc(OCCCN(C)C)cc2)c2ccc(OCCCN(C)C)cc2)cc1 please
active

Do the same for CN(CCF)c1ccc(/C=C/C(=O)c2ccc(N)cc2O)cc1 please
inactive

Do the same for C/C(=N\N=C\c1ccc(N(C)C)cc1)c1ccc2c(c1)Nc1ccccc1S2 please
inactive

Do the same for O=c1oc2ccc(-c3ccc(F)cc3F)cc2c(=O)n1-c1ccc(F)c(Cl)c1 please
active

Do the same for COc1cc2oc(-c3cccc(C(=O)Nc4ccc(Cl)cc4)c3)cc(=O)c2c(OCCNC(=O)CNC(=O)OC(C)(C)C)c1OC please
inactive

Do the same for CN1CCO/C1=C(/NC(=O)c1ccc(Cl)cc1)[P+](c1ccccc1)(c1ccccc1)c1ccccc1 please
inactive

Do the same for C#CCNC(=O)CCC(=O)OC[C@]12CC[C@@H](C(=C)C)[C@@H]1C1CC[C@@H]3[C@@]4(C)CCCNC(C)(C)[C@@H]4CC[C@@]3(C)[C@]1(C)CC2 (stereo partly drawn) please
active

Do the same for CNCc1cccc2c1OCCCCCC[C@@](C)(O)CC1(CC1)S(=O)(=O)c1ccc(cc1)-c1cnc(N)c(n1)C(=O)N2 please
active

Do the same for O=C(c1ccc(-n2c(=O)[nH]c3ccccc3c2=O)cc1)N1CCOCC1 please
inactive

Do the same for C=C[C@@]12CN3CC[C@]1(O)[C@@](C(=O)OC)(CO2)c1[nH]c2ccccc2c1C3 please
inactive

Do the same for Cc1cc2nc3c4ccccc4n(CCO)c3nc2cc1C please
inactive
